- METHOD: Luminescence Cell-Based Dose Confirmation HTS to Identify Inhibitors of Platelet Dense Granule Release. [Related pubchem assays: 1663 (Primary HTS), 1678 (Summary of Project)]
- Assay type: functional
The source made the active and inactive calls.
Give EC50 for every item shown.

Here's what some known entries look like.
MOLECULE: CC(=O)Nc1ccc(S(=O)(=O)N2CCC(C(=O)NCc3ccco3)CC2)cc1
PARAMETER_MEASURED: EC50
RESULT_VALUE: > 112 µM (not active)
//
MOLECULE: COc1ccc(NC(=O)c2cc([N+](=O)[O-])ccc2O)cc1
PARAMETER_MEASURED: EC50
RESULT_VALUE: 2.15 µM (active)
//
MOLECULE: Cc1cccc(NC(=O)CCCNC(=O)c2ccc(Cl)cc2)n1
PARAMETER_MEASURED: EC50
RESULT_VALUE: 16 µM (active)

# map each compound to its EC50
1. O=[N+]([O-])c1c(Nc2cccc(O)c2)cc(Cl)c2nonc12
2. COc1ccc(C(=O)Nc2ccccc2C(=O)Nc2cccnc2)cc1

Result:
4.14 µM (active)
6.59 µM (active)

----------
- Test system: Streptococcus
- METHOD: GAS UMAA2166 growth inhibition – luminescence, BacTiterGlo, counter-screen for streptokinase expression inhibitor project, dose response (AID 1915);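 further: potency for reduction of bacterial viability or growth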
- Assay type: functional, organism-based
Calls of active or inactive are those of the source.
PARAMETER_MEASURED: EC50

MOLECULE: Cc1ccc(S(=O)(=O)/N=C2\C=C(Nc3cccc(C(=O)O)c3)C(=O)c3ccccc32)cc1
EC50: 14.3 µM (active)
//
MOLECULE: Cc1cc(/C=N/n2cnnc2)c(C)n1-c1ccc(OCc2ccc(Cl)cc2)cc1
EC50: 12.3 µM (active)
//
MOLECULE: Clc1ccc(-c2ccc(/C=N/Nc3cc(N4CCOCC4)nc(N4CCOCC4)n3)o2)cc1
EC50: 17.1 µM (active)

# map each compound to its EC50
1. N#Cc1nc(-c2ccccc2Cl)oc1N1CCN(C(=O)c2ccco2)CC1
2. CCOc1cc(N2CCOCC2)c(OCC)cc1NC(=O)C1=NN(c2cccc(C)c2)C(=O)CC1
3. CC[C@@H](C)[C@H](CNC)NC[C@@H](Cc1cccc2ccccc12)NCCc1cccc(C(F)(F)F)c1
4. CC(C)c1ccc2[nH]c3c(c2c1)CCC/C3=N\NC(=O)c1ccncc1

Result:
> 150 µM (not active)
123 µM (active)
7.12 µM (active)
16.9 µM (active)

----------
Give AC50 for every item shown.
- METHOD: blockers of HIV-1 ZM109 envelope-driven cell-cell fusion – HeLa effector, CEM target cells, luciferase, cherry-pick, dose response (AID 652058);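 further: luciferase signal from HIV-1 Env mediated cell-cell fusion of effector and target cells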
- Assay type: functional, cell-based
Active and inactive are the calls of the source.

COMPOUND: Cc1ccc(S(=O)(=O)Nc2ccc3c(c2)CC(=O)N([C@H](C)CO)C[C@H](C)[C@H](CN(C)S(=O)(=O)c2ccc(F)cc2)O3)cc1
AC50: 5.04 µM (active)

# map each compound to its AC50
1. COc1cc(NC2c3ccccc3C(=O)N2Cc2ccccc2)cc(OC)c1OC (stereo not given)
2. FC(F)(F)c1cc(CCN2CCNC[C@@H]2CC2CCCCC2)cc(C(F)(F)F)c1
3. COc1cc(NC2c3ccccc3C(=O)N2Cc2ccc3c(c2)OCO3)cc(OC)c1OC (stereo not given)
4. COc1ccccc1C(=O)Nc1nc2ccccc2[nH]1

Result:
1. 13.1 µM (active)
2. 11.5 µM (active)
3. 5.79 µM (active)
4. 6.08 µM (active)

----------
- TARGET_ENTITY: Caspase-6 (Homo sapiens)
- METHOD: inhibition of CASP6 peptide cleavage – biochemical, VEID-R110 fluorescence, cherry-pick, dose response (AID 720632)
Activity calls are given as the source filed them.
PARAMETER_MEASURED: AC50

MOLECULE: O=C1NC(=O)C(=Cc2ccccc2[N+](=O)[O-])S1
TARGET_ENTITY: Caspase-6 (Homo sapiens)
RESULT_VALUE: 3.66 µM (active)

MOLECULE: O=[N+]([O-])c1c(Nc2ccccn2)cc(Cl)c2nonc12
TARGET_ENTITY: Caspase-6 (Homo sapiens)
RESULT_VALUE: 1.06 µM (active)

MOLECULE: O=c1oc(-c2ccccc2)nc2sc3c(c12)CCC3
TARGET_ENTITY: Caspase-6 (Homo sapiens)
RESULT_VALUE: 0.44 µM (active)

MOLECULE: CC#CC#Cc1cccc(=O)o1
TARGET_ENTITY: Caspase-6 (Homo sapiens)
RESULT_VALUE: 9.68 µM (active)

Here is the next item to consider.
Lab note: measured AC50 of O=C(O)Cc1c[nH]c2cccc(O)c12 was 11.1 µM (active)

----------
Give EC50 for every item shown.
- METHOD: Trypanosoma cruzi growth suppression in host cells – NIH3T3 host cells, beta-gal luminescence, confirmation (AID 2044);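 further: intracellular parasites grown in NIH/3T3 mouse fibroblasts as host cells; luminescent beta-galactosidase reporter signal from transgenic T. cruzi replicating inside host cells; inhibitors lower the luminescence signal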
- Type: functional, cell-based
The source made the active and inactive calls.

Here's what some known entries look like.
COMPOUND: Cc1ccc(NC(=O)CCC(=O)N/N=C/c2ccc([N+](=O)[O-])o2)cc1C
EC50: < 0.1 µM (active)

COMPOUND: Oc1c(N=NC(S)=Nc2ccccc2F)c2ccccc2n1Cc1ccc(Cl)cc1
EC50: 1.06 µM (active)

COMPOUND: CN(C)CCCN(C(=O)c1ccco1)c1nc(-c2ccc(Cl)cc2)cs1
EC50: < 0.1 µM (active)

COMPOUND: O=C(NN(c1ccccc1)c1ccccc1)c1ccc([N+](=O)[O-])o1
EC50: < 0.1 µM (active)

COMPOUND: COc1ccccc1N1CCN(c2ncc(C(=O)N3CCN(c4cccc(Cl)c4)CC3)c3ccccc23)CC1
EC50: 2.29 µM (active)

# map each compound to its EC50
1. COc1ccc([C@H]2/C=C\CN(S(=O)(=O)c3ccc4ccccc4c3)[C@@H](C)C(=O)N2Cc2ccc(F)cc2)cc1
2. COc1ccc(-c2csc3ncnc(N4CCN(S(=O)(=O)c5cccc(Br)c5)CC4)c23)cc1
3. COc1cc(-c2cc(-c3ccccc3)nc(SCC(=O)Nc3nccs3)c2C#N)cc(OC)c1OC
4. CN(C)CCn1c(=O)n(Cc2ccco2)c(=O)c2c3c(sc21)CCCCC3
5. COc1cccc(C2c3c(C)nn(-c4ccc([N+](=O)[O-])cc4)c3N=C3C(=O)Nc4ccccc4N32)c1 (stereo not given)

Result:
2.03 µM (active)
1.71 µM (active)
1.72 µM (active)
0.196 µM (active)
1.87 µM (active)

----------
- TARGET_ENTITY: UniProt:P08684
- Sequence (P08684 whole entry): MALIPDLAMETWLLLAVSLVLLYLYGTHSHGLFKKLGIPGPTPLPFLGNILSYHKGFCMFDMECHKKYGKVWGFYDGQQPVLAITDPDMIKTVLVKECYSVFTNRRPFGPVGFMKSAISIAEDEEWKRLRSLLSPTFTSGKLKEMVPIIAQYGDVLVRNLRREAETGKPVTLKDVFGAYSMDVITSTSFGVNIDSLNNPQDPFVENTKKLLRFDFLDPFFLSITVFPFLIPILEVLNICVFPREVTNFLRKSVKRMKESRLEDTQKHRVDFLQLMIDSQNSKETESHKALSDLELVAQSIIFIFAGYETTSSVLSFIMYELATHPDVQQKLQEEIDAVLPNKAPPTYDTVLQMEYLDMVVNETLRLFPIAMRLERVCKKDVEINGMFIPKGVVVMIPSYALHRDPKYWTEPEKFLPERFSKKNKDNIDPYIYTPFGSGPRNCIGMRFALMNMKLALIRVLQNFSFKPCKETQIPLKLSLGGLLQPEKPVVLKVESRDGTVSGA
PARAMETER_MEASURED: AC50

COMPOUND: COc1ccc(-c2nc3cnc(N4CCN(C)CC4)nc3n(Cc3ccc(F)cc3)c2=O)cc1
PARAMETER_MEASURED: AC50
RESULT_VALUE: inconclusive

COMPOUND: Cc1cccc(NC(=O)C2(c3ccccc3)CC2(Cl)Cl)c1 (centres undefined)
PARAMETER_MEASURED: AC50
RESULT_VALUE: inconclusive

COMPOUND: COc1ccc2c(c1)CN([C@H](C)[C@@H]1CC[C@@H]3[C@H]4CC[C@H]5C[C@@H](O)CC[C@@]5(C)[C@H]4CC[C@]31C)CO2
PARAMETER_MEASURED: AC50
RESULT_VALUE: inconclusive

----------
- TARGET_ENTITY: Protein skinhead-1 (Caenorhabditis elegans)
- Sequence (P34707 whole entry): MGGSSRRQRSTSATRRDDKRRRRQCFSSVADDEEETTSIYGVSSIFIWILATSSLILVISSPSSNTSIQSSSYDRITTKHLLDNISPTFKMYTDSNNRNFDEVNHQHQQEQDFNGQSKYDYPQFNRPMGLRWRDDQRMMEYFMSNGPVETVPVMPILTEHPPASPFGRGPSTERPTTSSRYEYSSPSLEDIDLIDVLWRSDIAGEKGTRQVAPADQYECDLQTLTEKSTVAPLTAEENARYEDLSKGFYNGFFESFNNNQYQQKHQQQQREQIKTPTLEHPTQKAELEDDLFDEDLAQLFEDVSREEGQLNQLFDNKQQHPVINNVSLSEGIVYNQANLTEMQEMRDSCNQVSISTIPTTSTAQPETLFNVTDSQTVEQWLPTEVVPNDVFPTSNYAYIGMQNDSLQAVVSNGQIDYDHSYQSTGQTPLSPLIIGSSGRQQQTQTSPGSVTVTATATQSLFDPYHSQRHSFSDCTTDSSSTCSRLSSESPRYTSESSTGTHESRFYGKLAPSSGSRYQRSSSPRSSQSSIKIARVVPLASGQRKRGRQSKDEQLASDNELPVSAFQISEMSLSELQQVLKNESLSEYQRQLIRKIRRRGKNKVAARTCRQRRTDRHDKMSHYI
- Assay type: functional
Active and inactive are the calls of the source.
Can you answer with just one of these options? active, inactive

MOLECULE: O=C(CSc1nnc(CNc2ccc(F)cc2)n1Cc1ccco1)NC1CC1
CLASS_NAME: inactive
//
MOLECULE: CCOC(=O)COn1c(-c2cccc(Cl)c2)nc2ccc([N+](=O)[O-])cc21
CLASS_NAME: inactive
//
MOLECULE: Cc1ccc(SCCNC(=O)CN2C(=O)c3ccccc3S2(=O)=O)cc1
CLASS_NAME: inactive
//
MOLECULE: Fc1ccc(OCc2nc3ccccc3s2)cc1
CLASS_NAME: inactive
//
MOLECULE: Cn1c(/C(C#N)=C(\O)c2ccc([N+](=O)[O-])s2)nc2ccccc21
CLASS_NAME: inactive

Task: Per the assay record, what outcome was assigned to O=C(c1ccc(Br)cc1)c1cc([N+](=O)[O-])ccc1N1CCOCC1 ?
Result: active

Task: Per the assay record, what outcome was assigned to COC(=O)c1cc(-c2cccc(OC)c2)[nH]n1 ?
Result: inactive

Task: Per the assay record, what outcome was assigned to CC(=O)NS(=O)(=O)c1ccc(Nc2ccc([N+](=O)[O-])c3nonc23)cc1 ?
Result: active

----------
Give EC50 for every item shown.
- METHOD: NIH-3T3 fibroblast cytotoxicity, dose response, cytotoxicity control, cell-based, fluorescence, Alamar Blue, secondary assay (AID 2327);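 further: NIH-3T3 mouse fibroblasts cultured with fluconazole at 8 µg/mL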
- Type: functional
The source made the active and inactive calls.

MOLECULE: O=C(O)CCCCCN1C(=O)/C(=C\c2ccncc2)SC1=S
EC50: 6.7 µM (inconclusive)

# map each molecule to its EC50
1. Oc1ccccc1N=Nc1ccccc1O
2. CC[C@@H](C)[C@H](CNC)NC[C@@H](Cc1cccc2ccccc12)NCCc1cccc(C(F)(F)F)c1
3. O=C(Nc1nnc(COc2ccc(F)cc2)s1)c1ccco1

Result:
1: > 160 µM (inactive); 2: > 150 µM (inconclusive); 3: > 160 µM (inactive)
